Attribution: patent EP2970359B1

test system: L1210; assay: In vitro cytotoxicity, leukemia cell line; details: Mus musculus, L1210, read-out: In vitro cytotoxicity Leukemia L1210
Quick list: pIC50 per entry.
The meaning of pIC50 here: minus log10 of the concentration in molar units.

Worked examples, 2 molecules total:
## Input Looking for the measured pIC50 of Nc1ncn([C@@H]2O[C@H](CO)[C@@H](O)C2(F)F)c(=O)n1 , can you help?
## Output 5.99

## Input Can you handle NC1=NC(=O)N([C@@H]2O[C@H](CO)[C@@H](O)C2(F)F)CN1 next?
## Output 4.04

Next molecule, pIC50 to be filled in.
## Input Looking for the measured pIC50 of O=c1ncccn1[C@@H]1O[C@H](CO)[C@@H](O)[C@H]1O [Zebularine, reference compound] , can you help?
## Output 3.97

* * *

system: P388; test: In vitro cytotoxicity, leukemia cell line; conditions: Mus musculus, P388, read-out: In vitro cytotoxicity Leukemia P388*
Measured quantity: pIC50
The meaning of pIC50 here: minus log10 of the concentration in molar units.

## Input Lookup: pIC50 / P388 / Nc1ncn([C@@H]2O[C@H](CO)[C@@H](O)C2(F)F)c(=O)n1 [NUC013, 2',2'-difluoro-5-azadeoxycytidine]
## Output 6.32

* * *

Quick list: GI50 per entry.
test system: HCT-116; test: In vitro cytotoxicity (GI50), colorectal cancer cell line; conditions: Homo sapiens, HCT-116, read-out: Growth Inhibition (GI50) HCT-116

Worked examples, 4 compounds total:
## Input Looking for the measured GI50 of O=c1ncccn1[C@@H]1O[C@H](CO)[C@@H](O)C1(F)F [NUC019, 2'-deoxy-2',2'-difluorozebularine] , can you help?
## Output 310 µM

## Input Can you handle NC1=NC(=O)N([C@@H]2O[C@H](CO)[C@@H](O)[C@H]2O)CN1 [5,6-dihydro-5-azacytidine, reference compound] next?
## Output 21.4 µM

## Input Can you handle Nc1ccn([C@@H]2O[C@H](CO)[C@@H](O)C2(F)F)c(=O)n1 [gemcitabine, reference compound] next?
## Output 0.01 µM

## Input Can you handle Nc1ncn([C@H]2C[C@H](O)[C@@H](CO)O2)c(=O)n1 [Decitabine, 5-azadeoxycytidine, reference compound] next?
## Output > 31.2 µM

Next compound, GI50 to be filled in.
## Input Looking for the measured GI50 of Nc1ncn([C@@H]2O[C@H](CO)[C@@H](O)C2(F)F)c(=O)n1 [NUC013, 2',2'-difluoro-5-azadeoxycytidine] , can you help?
## Output 4.54 µM

* * *

Quick list: pIC50 per entry.
Tested on: HCT-116
Assay: In vitro cytotoxicity (GI50), colorectal cancer cell line
Conditions: Homo sapiens, HCT-116, read-out: In vitro cytotoxicity Colon HCT-116
Method: The in vitro cytotoxicity was measured in the following cell lines: NCI-H460 (ATCC #HTB-177) (non-small cell lung), HCT-116 (ATCC #CCL-247) (colorectal), HL-60 (ATCC #CCL-240) (leukemia), and MDA-MB-231 (ATCC #HTB-26) (breast). Table 4. Growth Inhibition (GI50) Values (µM) for Selected Cell Lines.
The meaning of pIC50 here: minus log10 of the concentration in molar units.

## Input Looking for the measured pIC50 of Nc1ncn([C@@H]2O[C@H](CO)[C@@H](O)C2(F)F)c(=O)n1 , can you help?
## Output 5.34

Next compound, pIC50 to be filled in.
## Input Looking for the measured pIC50 of O=c1ncccn1[C@@H]1O[C@H](CO)[C@@H](O)[C@H]1O [Zebularine, reference compound] , can you help?
## Output 4.32

* * *

Quick list: GI50 per entry.
tested on: MDA-MB-231; assay: In vitro cytotoxicity (GI50), breast cancer cell line; conditions: Homo sapiens, MDA-MB-231, read-out: Growth Inhibition (GI50) MDA-MB-231
Entry rule: numbers only, all in µM.

## Input Looking for the measured GI50 of O=c1ncccn1[C@@H]1O[C@H](CO)[C@@H](O)C1(F)F [NUC019, 2'-deoxy-2',2'-difluorozebularine] , can you help?
## Output 166

Next compound, GI50 to be filled in.
## Input Looking for the measured GI50 of Nc1ccn([C@@H]2O[C@H](CO)[C@@H](O)C2(F)F)c(=O)n1 [gemcitabine, reference compound] , can you help?
## Output 0.72

* * *

system: MDA-MB-231; experiment: In vitro cytotoxicity (GI50), breast cancer cell line; settings: Homo sapiens, MDA-MB-231, read-out: Growth Inhibition (GI50) MDA-MB-231
Quick list: GI50 per entry.

## Input Looking for the measured GI50 of Nc1ncn([C@H]2C[C@H](O)[C@@H](CO)O2)c(=O)n1 [Decitabine, 5-azadeoxycytidine, reference compound] , can you help?
## Output > 31.2 µM

## Input Can you handle NC1=NC(=O)N([C@@H]2O[C@H](CO)[C@@H](O)[C@H]2O)CN1 [5,6-dihydro-5-azacytidine, reference compound] next?
## Output > 31.2 µM

Next compound, GI50 to be filled in.
## Input Looking for the measured GI50 of Nc1ncn([C@@H]2O[C@H](CO)[C@@H](O)C2(F)F)c(=O)n1 , can you help?
## Output > 31.2 µM
